# method: In vivo PK study, intratracheal (IT) and intravenous (IV)
# condition_info: male, CD1, mouse, plasma, inhaled or intranasal, […]
parameter: half-life

input_smiles=NC[C@H]1O[C@H](O[C@H]2[C@H](O)[C@@H](O[C@H]3O[C@H](CO)[C@@H](O)[C@H](N)[C@H]3O)[C@H](N)C[C@@H]2N)[C@H](N)C[C@@H]1O parameter=half-life measurement="48.6 min"

---

# method: Apparent permeability in Calu-3 cell line
# Format: in vitro ADME
# condition_info: human; air–liquid interface
parameter: Papp at 4 h

input_smiles=CC(C)Oc1ccc(-c2ncc(CNc3ccnc(C(F)(F)F)c3)cn2)cc1Cl parameter="Papp at 4 h" measurement="3.1 ×10⁻⁶ cm/s"
